# Assayed Target: human vasopressin V2 receptor subtype (Homo sapiens)
# Construct: host or cells: CHO cells (pZeoSV vector)
# Sequence (P30518 whole entry): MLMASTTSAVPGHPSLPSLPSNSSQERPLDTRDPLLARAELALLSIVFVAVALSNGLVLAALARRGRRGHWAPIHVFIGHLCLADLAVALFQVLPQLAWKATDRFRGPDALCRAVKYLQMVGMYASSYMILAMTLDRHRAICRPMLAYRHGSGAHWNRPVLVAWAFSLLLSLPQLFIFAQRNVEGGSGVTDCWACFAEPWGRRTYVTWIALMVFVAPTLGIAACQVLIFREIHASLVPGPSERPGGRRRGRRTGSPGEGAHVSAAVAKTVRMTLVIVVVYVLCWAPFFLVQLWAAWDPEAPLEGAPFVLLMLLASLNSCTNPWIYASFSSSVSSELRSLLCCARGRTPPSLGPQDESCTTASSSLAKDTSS
# Method: Vasopressin binding in Chinese Hamster Ovary cell membranes expressing human vasopressin V2 subtype receptors
# Condition Set: 100 nM, CHO cell membranes, [3H]arginine vasopressin, values without parentheses
Hi there, I'd appreciate the recorded V2 % inhibition @ 100 nM for every entry that follows.
Give just the number in %; leave the unit off.

Sample "COc1ccccc1-c1ccc(C(=O)N2Cc3ccc(C(=O)N4CCC[C@H]4CN4CCCC4)n3Cc3ccccc32)cc1OC" — what was its V2 % inhibition @ 100 nM?
−19

Sample COc1cccc(-c2ccc(C(=O)N3Cc4ccc(C(=O)NCCC5CCCN5C)n4Cc4ccccc43)cc2C)c1 (stereo not drawn) — what was its V2 % inhibition @ 100 nM?
16

Sample "COc1cc2c(cc1OC)N(C(=O)c1ccc(-c3ccccc3C(F)(F)F)c(C)c1)Cc1ccc(C(=O)N(C)CCCN(C)C)n1C2.Cl" — what was its V2 % inhibition @ 100 nM?
−4

Sample "COc1ccccc1-c1ccc(C(=O)N2Cc3ccc(C(=O)N4CC[C@@H](N(C)C)C4)n3Cc3ccccc32)cc1" — what was its V2 % inhibition @ 100 nM?
17

Sample "COc1cccc(-c2ccc(C(=O)N3Cc4ccc(C(=O)N5CCC[C@H]5CN5CCCC5)n4Cc4ccccc43)cc2OC)c1" — what was its V2 % inhibition @ 100 nM?
25

Sample "COc1cc(C(=O)N2Cc3ccc(C(=O)N4CCC[C@H]4CN4CCCC4)n3Cc3ccccc32)ccc1-c1cccc2ccccc12" — what was its V2 % inhibition @ 100 nM?
4

Sample "Cc1ccccc1-c1ccc(C(=O)N2Cc3ccc(C(=O)N4CCC[C@H]4CN4CCCC4)n3Cc3ccccc32)cc1C" — what was its V2 % inhibition @ 100 nM?
20

Sample "COc1cc2c(cc1OC)N(C(=O)c1ccc(-c3ccccc3C(F)(F)F)c(C)c1)Cc1ccc(C(=O)N3CCC(=O)CC3)n1C2" — what was its V2 % inhibition @ 100 nM?
−3

Sample "COc1ccccc1-c1ccc(C(=O)N2Cc3ccc(C(=O)N4CCC[C@H]4CN4CCCC4)n3Cc3ccccc32)cc1C" — what was its V2 % inhibition @ 100 nM?
−3

Sample "COc1cccc(-c2cc(OC)c(C(=O)N3Cc4ccc(C(=O)N5CCC[C@H]5CN5CCCC5)n4Cc4ccccc43)cc2Cl)c1" — what was its V2 % inhibition @ 100 nM?
34

Sample "COc1cccc(-c2ccc(C(=O)N3Cc4ccc(C(=O)N5CCN(CCN(C)C)CC5)n4Cc4ccccc43)cc2C)c1" — what was its V2 % inhibition @ 100 nM?
6

Sample "COc1cc(C(=O)N2Cc3ccc(C(=O)N4CCC[C@H]4CN4CCCC4)n3Cc3ccccc32)ccc1-n1c(C)ccc1C" — what was its V2 % inhibition @ 100 nM?
23

Sample "COc1cccc(-c2ccc(C(=O)N3Cc4ccc(C(=O)N5CC[C@@H](N(C)C)C5)n4Cc4ccccc43)cc2OC)c1" — what was its V2 % inhibition @ 100 nM?
29

Sample "COc1cccc(-c2cc(OC)c(C(=O)N3Cc4ccc(C(=O)N5CCN(CCN6CCOCC6)CC5)n4Cc4ccccc43)cc2Cl)c1" — what was its V2 % inhibition @ 100 nM?
43

Sample "COC(=O)c1ccc2c(c1)N(C(=O)c1ccc(-c3ccccc3C(F)(F)F)c(C)c1)Cc1cccn1C2" — what was its V2 % inhibition @ 100 nM?
3

Sample "O=C(c1ccc(-c2cccc3ccccc23)cc1Cl)N1Cc2ccc(C(=O)N3CCC[C@H]3CN3CCCC3)n2Cc2ccccc21" — what was its V2 % inhibition @ 100 nM?
18

Sample "COc1ccccc1-c1ccc(C(=O)N2Cc3ccc(C(=O)N4CCC(N5CCCC5)CC4)n3Cc3ccccc32)cc1OC" — what was its V2 % inhibition @ 100 nM?
−5

Sample "COc1cc(C(=O)N2Cc3ccc(C(=O)N4CC[C@@H](N(C)C)C4)n3Cc3ccccc32)ccc1-c1cccc2ccccc12" — what was its V2 % inhibition @ 100 nM?
−3

Sample "COc1cc(C(=O)N2Cc3ccc(C(=O)N4CC[C@@H](N(C)C)C4)n3Cc3ccccc32)ccc1-c1ccccc1C" — what was its V2 % inhibition @ 100 nM?
−9

Sample "COc1cc(-c2ccccc2C)c(Cl)cc1C(=O)N1Cc2ccc(C(=O)N3CCC[C@H]3CN3CCCC3)n2Cc2ccccc21" — what was its V2 % inhibition @ 100 nM?
24

Sample "COc1cc(C(=O)N2Cc3ccc(C(=O)N4CCC[C@H]4CN4CCCC4)n3Cc3ccccc32)ccc1-c1ccccc1Cl" — what was its V2 % inhibition @ 100 nM?
11

Sample Cc1cccc(N2CCN(C(=O)c3ccc4n3Cc3ccccc3N(C(=O)c3ccc(-c5ccccc5C(F)(F)F)c(C)c3)C4)CC2C)c1 (stereo not drawn) — what was its V2 % inhibition @ 100 nM?
3

Sample "Cc1cc(C(=O)N2Cc3ccc(C(=O)NCCCN(C)C)n3Cc3ccccc32)ccc1-c1ccccc1C(F)(F)F" — what was its V2 % inhibition @ 100 nM?
11

Sample "COc1cc(C(=O)N2Cc3ccc(C(=O)N4CCC[C@H]4CN4CCCC4)n3Cc3ccccc32)ccc1-c1ccccc1C" — what was its V2 % inhibition @ 100 nM?
−17

Sample "COc1cc(C(=O)N2Cc3ccc(C(=O)N4CC[C@@H](N(C)C)C4)n3Cc3ccccc32)ccc1-n1c(C)ccc1C" — what was its V2 % inhibition @ 100 nM?
24

Sample "COc1ccccc1-c1ccc(C(=O)N2Cc3ccc(C(=O)N4CC[C@@H](N(C)C)C4)n3Cc3ccccc32)cc1OC" — what was its V2 % inhibition @ 100 nM?
−17

Sample "COc1cc(C(=O)N2Cc3ccc(C(=O)N(C)CCCN(C)C)n3Cc3ccccc32)ccc1-n1c(C)ccc1C" — what was its V2 % inhibition @ 100 nM?
12

Source of measurements: patent US7109193B2
